Just for reference, PubChem BioAssay (NCI) is where these values come from.

System: SR leukemia
Assay: NCI-60 one-dose screen, 48 h
Conditions: 10 µM unless noted
About 83,000 compounds went through this panel and 20% of them were active in at least one assay; those are over-represented in the sample as a whole. Activity calls are given as the source filed them. The calls were made as follows: active = growth percent below 10; inactive = the rest.
Lab note: assign the record to one of yes (1) (active), no (0) (inactive)

{"columns": ["compound", "category.label"],
 "data": [
  ["Cc1c(O)c(N=Nc2ccc(C(=O)O)c(O)c2)c2ccccc2c1O", "no (0)"],
  ["CCCCCCCCCCCC(=O)OC(C)C(=O)Nc1ccccc1 (stereo unspecified)", "no (0)"],
  ["CC([C@H]1CCC2C3CCC4C[C@@H](N)CC[C@]4(C)C3CC[C@@]21C)N(C)C (stereo partly specified)", "no (0)"],
  ["CCCC(=O)NNc1[nH]c(-c2ccc(OC)cc2)cc1C(=O)OCC", "no (0)"],
  ["Cc1ccc2c(c1)C(=O)CCS2", "no (0)"]
]}

Query string: Could you check what this test reported for Cc1ccnc2c(NC(C)CCCN)cc(O)c(O)c12 (stereo unspecified) ?
Result string: no (0)

Query string: Could you check what this test reported for `Nc1ccc(S(=O)(=O)Nc2cc(F)cc(F)c2)cc1` ?
Result string: no (0)

###

System: SK-MEL-2 melanoma
Assay: NCI-60 one-dose screen, 48 h (100 = growth as untreated, 0 = no growth, -100 = all killed)
Conditions: 10 µM unless noted
Description: Growth inhibition of the SK-MEL-2 human tumor cell line is measured as a screen for anti-cancer activity. Cells are grown in 96 well plates and exposed to the test compound for 48 hours. Compounds are tested at a single concentration, which is 10^-5 M for most compounds. The reported endpoint is percent growth (GI% or GIPRCNT), where numbers from 0 - 100% represent growth inhibition, and numbers from -100% - 0 represent cell death. For example, a value of 40 represents 60% growth inhibition. […]
About 83,000 compounds went through this panel and 20% of them were active in at least one assay; those are over-represented in the sample as a whole.
Listed here: items and their measured growth.
Give just the numeric value; % need not be written.

{"columns": ["compound", "measured.result"],
 "data": [
  ["CN(C)CCOC(=O)C(C)(C)C", 103],
  ["OC(c1ccccc1)(c1ccccc1)C(F)(F)F", 97.7],
  ["CCCCCc1ccnc(CC(=O)c2ccc(OC)cc2)c1", 98.2],
  ["COc1cc(/C=C/C(=O)/C=C(/C=C/c2ccc(OC(C)=O)c(OC)c2)OB(F)F)ccc1OC(C)=O", 86.9],
  ["CCCCCCCCCCCCCCCCC(=O)O.CCCCCCCCCCCCCCCCCC(=O)O.CCCCCCCCCCCCCCCCCC(=O)O.CCCCCCCCCCCCCCCCCC(=O)O.CCCCCCCCCCCCCCCCCC(=O)O.CO[CH-]OC12COC1CC(O)C1(C)C(O)C(OC(C)O)C3=C(C)C(OC(=O)C(O)C([NH-])c4ccccc4)CC(O)(C(OC(=O)c4ccccc4)C21)C3(C)C.[Cu+].[Zn].[Zn].[Zn].[Zn].[Zn] (centres undefined)", 69.3]
]}

--- query ---
Query string: Given the compound `FC(F)(F)c1cccc(-c2[nH]ncc2-c2nnnn2-c2ccccc2)c1` , what is its reported growth?
Result string: 78.3

###

Test system: M14 melanoma
Experiment: NCI-60 one-dose screen, 48 h
Conditions: 10 µM unless noted
Experimental: Growth inhibition of the M14 human tumor cell line is measured as a screen for anti-cancer activity. Cells are grown in 96 well plates and exposed to the test compound for 48 hours. Compounds are tested at a single concentration, which is 10^-5 M for most compounds. The reported endpoint is percent growth (GI% or GIPRCNT), where numbers from 0 - 100% represent growth inhibition, and numbers from -100% - 0 represent cell death. For example, a value of 40 represents 60% growth inhibition. […]
This is part of a sample that, as a whole, favours compounds with a hit. Of some 83,000 tested, about 20% had one in any assay. Calls of active or inactive are those of the source. Rule for the calls: active = growth percent below 10; inactive = the rest.
Lab note: assign the record to one of TRUE for active, FALSE for inactive

Worked examples follow.
{"columns": ["compound", "study.system", "category.label"],
 "data": [
  ["CC(=O)Nc1nc(C)c(C(=O)N/N=C/N2CCOCC2)s1", "M14 melanoma", "FALSE"],
  ["CCOc1ccc(Br)cc1/C=C(\\C#N)c1ccc([N+](=O)[O-])cc1", "M14 melanoma", "FALSE"],
  ["NC(CSC(c1ccccc1)(c1ccccc1)c1ccccc1)C(=O)NCC(=O)O (configuration not stated)", "M14 melanoma", "FALSE"],
  ["CC(=O)NNC(=O)c1sc(NC(C)=O)nc1C", "M14 melanoma", "FALSE"],
  ["O=C(NC(=S)NNC(=S)NNc1ccccc1)c1ccccc1", "M14 melanoma", "FALSE"]
]}

Query string: Could you check what this test reported for `Oc1ccccc1/C=N/N=C\c1ccccc1Cl` ?
Result string: FALSE

Query string: Could you check what this test reported for `COc1cc(-c2nn(-c3ccc(NC(=O)c4cc(Cl)cc(Cl)c4)cc3)cc2-c2ccncc2)ccc1Cl` ?
Result string: FALSE

Query string: Could you check what this test reported for `O=C1/C(=N\c2cc(=O)[nH]n2S(=O)(=O)c2ccccc2)Nc2ccccc21` ?
Result string: FALSE

Query string: Could you check what this test reported for `COc1ccc(Cn2cc3c(c2-c2ccccc2)CCc2cnoc2-3)cc1N` ?
Result string: FALSE

Query string: Could you check what this test reported for `CCn1cnc(C[C@H](NC(=O)[C@@H](NC(=O)Nc2cc(C(F)(F)F)cc(C(F)(F)F)c2)C(C)(C)C)C(=O)OC)c1` ?
Result string: TRUE

Query string: Could you check what this test reported for `CC[C@@H](C)/C=C(C)/C=C/C(=O)c1c(O)c(-c2ccc(OC(=O)[C@@]34CC[C@@](C)(C(=O)O3)C4(C)C)cc2)cn(O)c1=O` ?
Result string: TRUE

Query string: Could you check what this test reported for `Cc1ccc([C@@H]2C[C@H](O)Cc3ccccc3N2)s1` ?
Result string: FALSE

Query string: Could you check what this test reported for `COc1ccc(Cn2cc3c(c2-c2ccc(OC)cc2)CCc2cnoc2-3)cc1` ?
Result string: TRUE

Query string: Could you check what this test reported for `CC#Cc1nc(Nc2cc(C)[nH]n2)c2ccccc2n1` ?
Result string: TRUE
